- target_or_test_system: Rat H3 (Rattus norvegicus)
- Sequence (Q9QYN8 whole entry): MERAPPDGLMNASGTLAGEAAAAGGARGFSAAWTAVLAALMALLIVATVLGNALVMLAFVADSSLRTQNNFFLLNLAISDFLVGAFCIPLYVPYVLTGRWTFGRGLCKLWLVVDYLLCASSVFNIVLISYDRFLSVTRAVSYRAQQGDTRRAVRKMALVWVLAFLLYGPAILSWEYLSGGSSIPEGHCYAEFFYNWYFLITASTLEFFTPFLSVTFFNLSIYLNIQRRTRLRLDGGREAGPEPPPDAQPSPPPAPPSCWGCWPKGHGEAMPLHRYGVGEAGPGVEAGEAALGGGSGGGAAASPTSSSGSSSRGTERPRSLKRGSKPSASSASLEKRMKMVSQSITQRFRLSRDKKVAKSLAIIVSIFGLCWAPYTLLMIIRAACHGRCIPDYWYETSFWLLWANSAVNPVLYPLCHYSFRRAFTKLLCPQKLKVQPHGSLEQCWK
- assay_method_text: Rat H3 radioligand binding assay (similar procedure)
pKi: −log10 of the molar value.
reported_property: pKi

1) C[C@H]1CCCN1[C@H]1CCN(c2ccc3c(c2)CCNCC3)C1 [Example 17]    8.23

* * *

- target_or_test_system: Rat H3 (Rattus norvegicus)
- assay_method_text: Rat H3 radioligand binding assay (similar procedure)
- condition_summary: rat H3, similar procedure to the rhesus binding assay; read-out: Rat H3 Binding ki
pKi: −log10 of the molar value.
reported_property: pKi

1) C[C@H]1CCCN1[C@H]1CCN(c2ccc3c(c2)CCN(c2ccc(Cl)cn2)C3)C1    7.57
2) C[C@H]1CCCN1[C@H]1CCN(c2ccc3c(c2)CCN(c2ccc(F)cn2)C3)C1    8.21
3) COc1cncc(N2CCc3cc(N4CC[C@H](N5CCC[C@@H]5C)C4)ccc3C2)c1    9.30

* * *

- target_or_test_system: rhesus H3 (Macaca mulatta, UniProt Q865E1)
- Construct: 445 amino acid H3 receptor
- Sequence (Q865E1 1-445): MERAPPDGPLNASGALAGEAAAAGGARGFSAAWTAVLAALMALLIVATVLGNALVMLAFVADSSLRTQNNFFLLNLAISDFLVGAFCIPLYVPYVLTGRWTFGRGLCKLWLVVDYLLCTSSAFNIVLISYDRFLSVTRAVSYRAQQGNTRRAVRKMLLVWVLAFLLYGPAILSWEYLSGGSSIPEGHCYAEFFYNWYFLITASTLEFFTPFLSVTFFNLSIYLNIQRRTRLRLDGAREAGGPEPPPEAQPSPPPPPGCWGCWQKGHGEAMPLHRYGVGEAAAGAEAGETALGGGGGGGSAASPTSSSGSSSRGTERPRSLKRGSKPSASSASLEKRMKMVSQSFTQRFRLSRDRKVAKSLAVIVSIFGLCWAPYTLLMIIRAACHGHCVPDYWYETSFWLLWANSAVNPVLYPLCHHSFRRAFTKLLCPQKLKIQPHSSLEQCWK
- assay_method_text: Rhesus H3 [3H]-Methylhistamine radioligand binding assay (SPA, cell membranes)
- condition_summary: [3H]-Methylhistamine 2 nM, Cheng-Prusoff
pKi: −log10 of the molar value.
Lab note: compare pKi against 8. Equal or greater, write True. Smaller, write False.

1) C[C@H]1CCCN1[C@H]1CCN(c2ccc3c(c2)CCNCC3)C1 [Example 17]    True
2) C[C@H]1CCCN1[C@H]1CCN(c2ccc3c(c2)CCN(c2cnc4ccccc4c2)CC3)C1 [Example 18]    False
3) C[C@H]1CCCN1[C@H]1CCN(c2ccc3c(c2)CCN(c2cnc(Br)nc2)C3)C1 [Example 5]    False
4) C[C@H]1CCCN1[C@H]1CCN(c2ccc3c(c2)CCN(c2ncc(C(F)(F)F)cc2Cl)C3)C1 [Example 14]    False
5) C[C@H]1CCCN1[C@H]1CCN(c2ccc3c(c2)CCN(c2nc4ccccc4o2)C3)C1 [Example 8]    False
6) C[C@H]1CCCN1[C@H]1CCN(c2ccc3c(c2)CCN(c2cnc4ccccc4c2)C3)C1 [Example 7]    True

* * *

- target_or_test_system: rhesus H3 (Macaca mulatta, UniProt Q865E1)
- Construct: 445 amino acid H3 receptor
- assay_method_text: Rhesus H3 [3H]-Methylhistamine radioligand binding assay (SPA, cell membranes)
- condition_summary: [3H]-Methylhistamine 2 nM, Cheng-Prusoff
reported_property: Ki

1) Cc1ccnc(N2CCc3cc(N4CC[C@H](N5CCC[C@@H]5C)C4)ccc3C2)c1    0.58 nM
2) C[C@H]1CCCN1[C@H]1CCN(c2ccc3c(c2)CCN(c2cncnc2)C3)C1    0.98 nM
3) C[C@H]1CCCN1[C@H]1CCN(c2ccc3c(c2)CCN(c2cccnc2Cl)C3)C1    2.2 nM
4) C[C@H]1CCCN1[C@H]1CCN(c2ccc3c(c2)CCN(c2ccc(C(F)(F)F)cn2)CC3)C1    25 nM

* * *

- target_or_test_system: rhesus H3 (Macaca mulatta)
- Construct: 445 amino acid H3 receptor; expressed in transfected cells; host or cells: Flp-In T-REx 293 Cell Line (Invitrogen), pcDNA5/FRT/TO, induced with tetracycline
- assay_method_text: GTPγS radioligand binding assay, inhibition of rhesus H3 constitutive functional activity in cell membranes
- Format: biochemical, rhesus monkey (Macacca Mulatta)
- condition_summary: basal rhesus H3-mediated GTPγS binding
Lab note: compare GTPγS-35 ASSAY % Inverse Agonism against -20%. Equal or greater, write yes (1). Smaller, write no (0).

1) C[C@H]1CCCN1[C@H]1CCN(c2ccc3c(c2)CCN(c2cccc(N4CCCC4)n2)C3)C1 [Example 15]    yes (1)
2) C[C@H]1CCCN1[C@H]1CCN(c2ccc3c(c2)CCN(c2ccc(F)cn2)C3)C1 [Example 12]    no (0)
3) C[C@H]1CCCN1[C@H]1CCN(c2ccc3c(c2)CCN(c2cnc(Br)nc2)C3)C1 [Example 5]    no (0)
4) CNC(=O)c1ccc(N2CCc3ccc(N4CC[C@H](N5CCC[C@@H]5C)C4)cc3CC2)nc1 [Example 20]    yes (1)
5) C[C@H]1CCCN1[C@H]1CCN(c2ccc3c(c2)CCN(c2ccc(Cl)cn2)C3)C1 [Example 16]    no (0)
6) C[C@H]1CCCN1[C@H]1CCN(c2ccc3c(c2)CCN(c2ccc(C(F)(F)F)cn2)CC3)C1 [Example 19]    yes (1)
7) C[C@H]1CCCN1[C@H]1CCN(c2ccc3c(c2)CCN(c2cnc4ccccc4c2)CC3)C1 [Example 18]    yes (1)
8) C[C@H]1CCCN1[C@H]1CCN(c2ccc3c(c2)CCN(c2cncnc2)C3)C1 [Example 6]    no (0)
9) Cc1cccc(N2CCc3cc(N4CC[C@H](N5CCC[C@@H]5C)C4)ccc3C2)n1 [Example 4]    no (0)
10) Cc1cc(C(F)(F)F)cc(N2CCc3cc(N4CC[C@H](N5CCC[C@@H]5C)C4)ccc3C2)n1 [Example 11]    no (0)
11) COc1cncc(N2CCc3cc(N4CC[C@H](N5CCC[C@@H]5C)C4)ccc3C2)c1 [Example 10]    yes (1)
12) C[C@H]1CCCN1[C@H]1CCN(c2ccc3c(c2)CCN(c2nc4ccccc4o2)C3)C1 [Example 8]    no (0)
13) Cc1ccnc(N2CCc3cc(N4CC[C@H](N5CCC[C@@H]5C)C4)ccc3C2)c1 [Example 13]    no (0)

Entry source: patent US8623877B2
